system: HT1080 cells; assay: Cellular assay, inhibition of 2-HG production in HT1080 cells; type: cell-based; settings: Homo sapiens, HT-1080, 48 h
Assignment: determine reported IC50 for the given molecules.

## Task Provide value of IC50 for this record tested with HT1080 cells: N#Cc1ccnc(N2C(=O)OCC[C@H]2C(=O)N(c2cncc(F)c2)C(C(=O)NC2CC(F)(F)C2)c2ccccc2F)c1 (stereo in doubt)
## Result < 100 nM

## Task Provide value of IC50 for this record tested with HT1080 cells: "O=C(NC1CC(F)(F)C1)[C@H](c1ccccc1Cl)N(C(=O)[C@@H]1CCC(=O)N1c1nccc2ccccc12)c1cccc(F)c1"
## Result 100 to 500 nM

## Task Provide value of IC50 for this record tested with HT1080 cells: "O=C(NC1CC(F)(F)C1)[C@H](c1ccccc1Cl)N(C(=O)[C@@H]1CCC(=O)N1c1ccc(Cl)cn1)c1cccc(F)c1"
## Result 100 to 500 nM

## Task Provide value of IC50 for this record tested with HT1080 cells: "COc1cccnc1N1C(=O)CC[C@H]1C(=O)N(c1cccc(F)c1)[C@H](C(=O)NC1CC(F)(F)C1)c1ccccc1Cl"
## Result 500 to 1000 nM

## Task Provide value of IC50 for this record tested with HT1080 cells: "O=C(NC1CC(F)(F)C1)[C@H](c1ccccc1Cl)N(C(=O)[C@@H]1COCC(=O)N1c1ncccn1)c1cccc(F)c1"
## Result 100 to 500 nM

## Task Provide value of IC50 for this record tested with HT1080 cells: "O=C(NC1CC(F)(F)C1)[C@H](c1ccccc1Cl)N(C(=O)[C@@H]1CCC(=O)N1c1cc(C(F)(F)F)ccn1)c1cccc(F)c1"
## Result 100 to 500 nM
